Reference for the values: paper PMC9273292

target: recombinant SARS-CoV-2 PLpro (Severe acute respiratory syndrome coronavirus 2); experiment: PLpro inhibition assay
assay-readout: IC50 (µM)
Enter your answer as a number in µM; do not include the unit.

For the molecule C=C(C)[C@@H]1CC[C@]2(C(=O)O)CC[C@]3(C)[C@H](CC[C@@H]4[C@@]5(C)CC[C@H](O)C(C)(C)[C@@H]5CC[C@]43C)[C@@H]12 [Compound 1, betulinic acid] , what IC50 is on record?
2.03

====

biological target: SARS-CoV-2 Nsp14N7 methyltransferase (Severe acute respiratory syndrome coronavirus 2); assay: Nsp14N7-MTase inhibition assay; assay type: biochemical
assay-readout: IC50 (µM)
Enter your answer as a number in µM; do not include the unit.

For the compound C=C(C)[C@@H]1CC[C@]2(C(=O)O)CC[C@]3(C)[C@H](CC[C@@H]4[C@@]5(C)CC[C@H](O)C(C)(C)[C@@H]5CC[C@]43C)[C@@H]12 [Compound 1, betulinic acid] , what IC50 is on record?
1.12

====

test: CCK-8 cytotoxicity assay; assay type: cell-based; settings: human, HRT-18 cells
assay-readout: CC50 (µM)
Enter your answer as a number in µM; do not include the unit.

Study these solved cases before continuing.
C=C(C)[C@@H]1CC[C@]2(C(=O)O)CC[C@]3(C)[C@H](CC[C@@H]4[C@@]5(C)CC[C@H](O)C(C)(C)[C@@H]5CC[C@]43C)[C@@H]12 [Compound 1, betulinic acid] = 19.4
C[C@H]1[C@H](C)CC[C@]2(C)CC[C@]3(C)C(=CC[C@@H]4[C@@]5(C)CC[C@H](O)C(C)(C)[C@@H]5CC[C@]43C)[C@H]12 [Compound 2, α-amyrin] = 24

For the compound O=c1c(O)c(-c2ccc(O)c(O)c2)oc2cc(O)cc(O)c12 [Compound 11, quercetin] , what CC50 is on record?
34
